- experiment-description: Growth inhibition, sulforhodamine B (SRB) assay, A2780
- Assay type: cell-based
- condition-set: human, A2780 ovarian carcinoma cells, A2780, 96 hr incubation, tested as salts, read-out: Cytotoxicity - IC50 A2780
test-readout: IC50 at 96 h (µM)
# number only, unit µM dropped from output

These recorded examples may help you get a feel for the data.
Nc1cccc(Nc2c3ccc(NC(=O)CCN4CCCC4)cc3nc3cc(NC(=O)CCN4CCCC4)ccc23)c1; 12.6
CC1CCCCN1CCC(=O)Nc1ccc2c(=O)c3ccc(NC(=O)CCN4CCCCC4C)cc3[nH]c2c1 (stereo not drawn); 13
O=C(CCN1CCCC1)Nc1ccc2c(NC3CCCCCC3)c3ccc(NC(=O)CCN4CCCC4)cc3nc2c1; 3.2
O=C(CCN1CCCCC1)Nc1ccc2c(=O)c3ccc(NC(=O)CCN4CCCCC4)cc3[nH]c2c1; 19
CC1(C)CC2CC(C)(CN2CCC(=O)Nc2ccc3c(=O)c4ccc(NC(=O)CCN5CC6(C)CC5CC(C)(C)C6)cc4[nH]c3c2)C1; 1.9

Next compound, please.
Query :: Could you tell me which IC50 at 96 h is on file for O=C(CCN1CCCC1)Nc1ccc2c(NCCN3CCCCC3)c3ccc(NC(=O)CCN4CCCC4)cc3nc2c1 ?
Result :: 12.6

----------
- experiment-description: Growth inhibition, sulforhodamine B (SRB) assay, SKOV-3
- Format: cell-based
- condition-set: human, SKOV-3 ovarian carcinoma cells, SKOV-3, 96 hr incubation, tested as salts, read-out: Cytotoxicity - IC50 SKOV-3
test-readout: IC50 at 96 h

These recorded examples may help you get a feel for the data.
O=C(CCN1CCCC1)Nc1ccc2c(NCc3cccnc3)c3ccc(NC(=O)CCN4CCCC4)cc3nc2c1; > 25 µM
CSc1cccc(Nc2c3ccc(NC(=O)CCN4CCCC4)cc3nc3cc(NC(=O)CCN4CCCC4)ccc23)c1; 3.2 µM
CC(=O)Nc1cccc(Nc2c3ccc(NC(=O)CCN4CCCC4)cc3nc3cc(NC(=O)CCN4CCCC4)ccc23)c1; > 25 µM

Query :: Could you tell me which IC50 at 96 h is on file for O=C(CCN1CCC(O)CC1)Nc1ccc2nc3ccc(NC(=O)CCN4CCC(O)CC4)cc3c(O)c2c1 ?
Result :: > 25 µM

----------
- experiment-description: Growth inhibition, sulforhodamine B (SRB) assay, CH1
- Format: cell-based
- condition-set: human, CH1 ovarian carcinoma cells, CH1, 96 hr incubation, tested as salts, read-out: Cytotoxicity - IC50 CH1
- Experimental: Growth inhibition was measured in three human ovarian carcinoma cell lines (A2780, CH1, and SKOV-3) and one human cervix carcinoma cell line (A431) using the sulforhodamine B (SRB) assay. Briefly, between 3000 and 6000 cells were seeded into the wells of 96-well microtiter plates and allowed to attach overnight. […]
Measured IC50 at 96 h by item
# number only, unit µM dropped from output

Query :: Could you tell me which IC50 at 96 h is on file for CC1CCCCN1CCC(=O)Nc1ccc2c(=O)c3ccc(NC(=O)CCN4CCCCC4C)cc3[nH]c2c1 (stereo not shown) ?
Result :: 11.8

Query :: Could you tell me which IC50 at 96 h is on file for COCCNc1c2ccc(NC(=O)CCN3CCCC3)cc2nc2cc(NC(=O)CCN3CCCC3)ccc12 ?
Result :: 3.2

Query :: Could you tell me which IC50 at 96 h is on file for Nc1cccc(Nc2c3ccc(NC(=O)CCN4CCCC4)cc3nc3cc(NC(=O)CCN4CCCC4)ccc23)c1 ?
Result :: 15.8

Query :: Could you tell me which IC50 at 96 h is on file for CN(C)c1cccc(Nc2c3ccc(NC(=O)CCN4CCCC4)cc3nc3cc(NC(=O)CCN4CCCC4)ccc23)c1 ?
Result :: 2

Query :: Could you tell me which IC50 at 96 h is on file for Nc1ccccc1Nc1c2ccc(NC(=O)CCN3CCCC3)cc2nc2cc(NC(=O)CCN3CCCC3)ccc12 ?
Result :: 10

Query :: Could you tell me which IC50 at 96 h is on file for CN(C)CCNc1c2ccc(NC(=O)CCN3CCCC3)cc2nc2cc(NC(=O)CCN3CCCC3)ccc12 ?
Result :: 17

Query :: Could you tell me which IC50 at 96 h is on file for CN(C)c1ccc(Nc2c3ccc(NC(=O)CCN4CC5(C)CC4CC(C)(C)C5)cc3nc3cc(NC(=O)CCN4CC5(C)CC4CC(C)(C)C5)ccc23)cc1 ?
Result :: 3.2

Query :: Could you tell me which IC50 at 96 h is on file for O=C(CCN1CCCC1)Nc1ccc2c(NC3CCCCCC3)c3ccc(NC(=O)CCN4CCCC4)cc3nc2c1 ?
Result :: 2.8

Query :: Could you tell me which IC50 at 96 h is on file for CC(=O)c1ccc(Nc2c3ccc(NC(=O)CCN4CCCC4)cc3nc3cc(NC(=O)CCN4CCCC4)ccc23)cc1 ?
Result :: 1.8

Query :: Could you tell me which IC50 at 96 h is on file for CN(C)c1ccc(Nc2c3ccc(NC(=O)CCN4CCCC4)cc3nc3cc(NC(=O)CCN4CCCC4)ccc23)cc1 ?
Result :: 10.1

Query :: Could you tell me which IC50 at 96 h is on file for CC1(C)CC2CC(C)(CN2CCC(=O)Nc2ccc3c(=O)c4ccc(NC(=O)CCN5CC6(C)CC5CC(C)(C)C6)cc4[nH]c3c2)C1 ?
Result :: 2.5

Query :: Could you tell me which IC50 at 96 h is on file for O=C(CCN1CCCC1)Nc1ccc(Nc2c3ccc(NC(=O)CCN4CCCC4)cc3nc3cc(NC(=O)CCN4CCCC4)ccc23)cc1 ?
Result :: 20

Query :: Could you tell me which IC50 at 96 h is on file for CCC1CCCCN1CCC(=O)Nc1ccc2c(=O)c3ccc(NC(=O)CCN4CCCCC4CC)cc3[nH]c2c1 (stereo not shown) ?
Result :: 11

Query :: Could you tell me which IC50 at 96 h is on file for CC1CCN(CCC(=O)Nc2ccc3c(=O)c4ccc(NC(=O)CCN5CCC(C)CC5)cc4[nH]c3c2)CC1 ?
Result :: 3

Query :: Could you tell me which IC50 at 96 h is on file for CSc1cccc(Nc2c3ccc(NC(=O)CCN4CCCC4)cc3nc3cc(NC(=O)CCN4CCCC4)ccc23)c1 ?
Result :: 0.6

----------
- experiment-description: Growth inhibition, sulforhodamine B (SRB) assay, SKOV-3
- Format: cell-based
- condition-set: human, SKOV-3 ovarian carcinoma cells, SKOV-3, 96 hr incubation, tested as salts, read-out: Cytotoxicity - IC50 SKOV-3
test-readout: log10 IC50 at 96 h (log10 of the value in µM)
Values below are the log10 of the recorded IC50 at 96 h, with µM as the unit.

These recorded examples may help you get a feel for the data.
CN(C)c1ccc(Nc2c3ccc(NC(=O)CCN4CC5(C)CC4CC(C)(C)C5)cc3nc3cc(NC(=O)CCN4CC5(C)CC4CC(C)(C)C5)ccc23)cc1 [JH-ACI-103]; 0.30
Nc1ccccc1Nc1c2ccc(NC(=O)CCN3CCCC3)cc2nc2cc(NC(=O)CCN3CCCC3)ccc12 [JH-ACI-76]; 1.20
COCCNc1c2ccc(NC(=O)CCN3CCCC3)cc2nc2cc(NC(=O)CCN3CCCC3)ccc12 [JH-ACI-86]; 1.25
CN(C)c1cccc(Nc2c3ccc(NC(=O)CCN4CCCC4)cc3nc3cc(NC(=O)CCN4CCCC4)ccc23)c1 [JH-ACI-78]; 0.60
CC1CCN(CCC(=O)Nc2ccc3c(=O)c4ccc(NC(=O)CCN5CCC(C)CC5)cc4[nH]c3c2)CC1 [BR-ACO-33]; 0.75
O=C(CCN1CCCC1)Nc1ccc2c(NC3CCCCCC3)c3ccc(NC(=O)CCN4CCCC4)cc3nc2c1 [JH-ACI-88]; 0.97
CN(C)c1ccc(Nc2c3ccc(NC(=O)CCN4CCCC4)cc3nc3cc(NC(=O)CCN4CCCC4)ccc23)cc1 [BR-ACO-19]; 1.11
CCC1CCCCN1CCC(=O)Nc1ccc2c(=O)c3ccc(NC(=O)CCN4CCCCC4CC)cc3[nH]c2c1 (centres unmarked) [BR-ACO-37]; 1.02

Next molecule, please.
Query :: Could you tell me which log10 IC50 at 96 h is on file for CC1(C)CC2CC(C)(CN2CCC(=O)Nc2ccc3c(Nc4ccc(N)cc4)c4ccc(NC(=O)CCN5CC6(C)CC5CC(C)(C)C6)cc4nc3c2)C1 [JH-ACI-101] ?
Result :: 0.08

----------
Measured IC50 at 96 h by item
- experiment-description: Growth inhibition, sulforhodamine B (SRB) assay, A2780
- Assay type: cell-based
- condition-set: human, A2780 ovarian carcinoma cells, A2780, 96 hr incubation, tested as salts, read-out: Cytotoxicity - IC50 A2780
- Description: Growth inhibition was measured in three human ovarian carcinoma cell lines (A2780, CH1, and SKOV-3) and one human cervix carcinoma cell line (A431) using the sulforhodamine B (SRB) assay. Briefly, between 3000 and 6000 cells were seeded into the wells of 96-well microtiter plates and allowed to attach overnight. […]
# number only, unit µM dropped from output

These recorded examples may help you get a feel for the data.
Nc1ccccc1Nc1c2ccc(NC(=O)CCN3CCCC3)cc2nc2cc(NC(=O)CCN3CCCC3)ccc12; 11
O=C(CCN1CCCC1)Nc1ccc2c(NC3CCCCC3)c3ccc(NC(=O)CCN4CCCC4)cc3nc2c1; 12.5
CN(C)c1ccc(Nc2c3ccc(NC(=O)CCN4CCCC4)cc3nc3cc(NC(=O)CCN4CCCC4)ccc23)cc1; 10
CCC1CCCCN1CCC(=O)Nc1ccc2c(=O)c3ccc(NC(=O)CCN4CCCCC4CC)cc3[nH]c2c1 (centres unmarked); 11.8
COCCNc1c2ccc(NC(=O)CCN3CCCC3)cc2nc2cc(NC(=O)CCN3CCCC3)ccc12; 10

Query :: Could you tell me which IC50 at 96 h is on file for CSc1cccc(Nc2c3ccc(NC(=O)CCN4CCCC4)cc3nc3cc(NC(=O)CCN4CCCC4)ccc23)c1 ?
Result :: 2.8

Query :: Could you tell me which IC50 at 96 h is on file for CC1(C)CC2CC(C)(CN2CCC(=O)Nc2ccc3c(Nc4ccc(N)cc4)c4ccc(NC(=O)CCN5CC6(C)CC5CC(C)(C)C6)cc4nc3c2)C1 ?
Result :: 1.6

Query :: Could you tell me which IC50 at 96 h is on file for CN(C)c1ccc(Nc2c3ccc(NC(=O)CCN4CC5(C)CC4CC(C)(C)C5)cc3nc3cc(NC(=O)CCN4CC5(C)CC4CC(C)(C)C5)ccc23)cc1 ?
Result :: 1
